FYI, the data here is from patent US20260070902A1.

- Assayed target: UniProtKB P51684
- Test protocol: Human CCR6-CRE reporter assay
- Assay type: cell-based
- Design: The second construct contained the open reading frame of human CCR6 in the pUNO1 backbone; host or cells: 293FT cells
- Recorded conditions: relative -Log IC50; 293FT cells transfected with human CCR6 and CRE-luciferase reporter; 6 μM Forskolin, 6 nM CCL20; 5 h
pIC50: −log10 of the molar value.
Please enter YES where pIC50 is greater than or equal to 7, and NO where it is lower.

Reference set (2 entries):
Item smiles	Group label
O=S(=O)(c1ccc(-c2ccc3nccn3c2)c(F)c1)N1CCC(Nc2ccc(S(F)(F)(F)(F)F)cc2)CC1	NO
O=S(=O)(c1ccc(-c2ccc3nccn3c2)nc1)N1CCC(Nc2ccc(S(F)(F)(F)(F)F)cc2)CC1	NO

Is pIC50 for `CC(C)c1cnc2ccc(-c3ccc(S(=O)(=O)[C@H]4CC[C@H](Nc5ccc(S(F)(F)(F)(F)F)cc5)CC4)cc3)cn12` at or above 7?
YES

###

Overview of reported log10(IC50) across a group of compounds:
- Assayed target: human CCR6 (Homo sapiens, UniProt P51684)
- Sequence (P51684 whole entry): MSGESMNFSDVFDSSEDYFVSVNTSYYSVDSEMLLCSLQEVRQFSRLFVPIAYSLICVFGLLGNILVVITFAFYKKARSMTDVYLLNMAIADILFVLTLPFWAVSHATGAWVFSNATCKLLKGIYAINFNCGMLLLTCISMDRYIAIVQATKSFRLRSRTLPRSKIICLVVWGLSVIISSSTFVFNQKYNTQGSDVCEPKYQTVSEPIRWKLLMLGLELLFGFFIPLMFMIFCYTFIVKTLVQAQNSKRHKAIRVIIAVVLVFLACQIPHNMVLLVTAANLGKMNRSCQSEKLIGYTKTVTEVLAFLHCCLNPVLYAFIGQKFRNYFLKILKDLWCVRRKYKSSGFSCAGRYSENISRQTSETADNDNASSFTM
- Test protocol: Human CCR6-CRE reporter assay
- Format: cell-based
- Design: The second construct contained the open reading frame of human CCR6 in the pUNO1 backbone; host or cells: 293FT cells
- Recorded conditions: relative -Log IC50; 293FT cells transfected with human CCR6 and CRE-luciferase reporter; 6 μM Forskolin, 6 nM CCL20; 5 h
Remember, log10 of IC50, in nM.

Take a look at these entries with their results.
Compound	log10(IC50)
CNC(=O)c1cccc(-c2ccc(S(=O)(=O)[C@H]3CC[C@H](Nc4ccc(S(F)(F)(F)(F)F)cc4)CC3)cc2)c1	1.50
O=c1[nH]cnn2cc(-c3ccc(S(=O)(=O)[C@H]4CC[C@H](Nc5ccc(S(F)(F)(F)(F)F)cc5)CC4)cc3)cc12	1.50
O=S(=O)(c1ccc(-c2cn3ccnc3cn2)cc1)[C@H]1CC[C@H](Nc2ccc(S(F)(F)(F)(F)F)cc2)CC1	2.20
Cc1n[nH]c2ccc(-c3ccc(S(=O)(=O)[C@H]4CC[C@@H](Nc5ccc(S(F)(F)(F)(F)F)cc5)CC4)cc3)cc12	2.70
N#Cc1cnc2ccc(-c3ccc(S(=O)(=O)N4CCC(Nc5ccc(S(F)(F)(F)(F)F)cc5)CC4)nc3)cn12	3.20
O=S(=O)(c1ccc(-c2ncc3[nH]ccc3n2)cc1)[C@H]1CC[C@H](Nc2ccc(S(F)(F)(F)(F)F)cc2)CC1	3.20
N#Cc1ccc(-c2ccc(S(=N)(=O)N3CCC(Nc4ccc(S(F)(F)(F)(F)F)cc4)CC3)cc2)cc1 (stereo not shown)	2.60
CN(C)C(=O)c1ccc(-c2ccc(S(=N)(=O)[C@H]3CC[C@H](Nc4ccc(S(F)(F)(F)(F)F)cc4)CC3)cc2)nc1 (stereo partly shown)	3.20

Quick check: log10(IC50) of CNC(=O)c1cccc(-c2ccc(S(=N)(=O)[C@H]3CC[C@H](Nc4ccc(S(F)(F)(F)(F)F)cc4)CC3)cc2)c1 (stereo partly shown) ?
2.30

// log10(IC50) lookup, key: `NC(=O)c1cc(-c2ccc(S(=O)(=O)[C@H]3CC[C@H](Nc4ccc(S(F)(F)(F)(F)F)cc4)CC3)cc2)cs1`
1.70

Consider the compound shown here: `CC(C)c1nnc2ccc(-c3ccc(S(=O)(=O)[C@H]4CC[C@H](Nc5ccc(S(F)(F)(F)(F)F)cc5)CC4)cc3)nn12` What is its recorded log10(IC50)?
2.10

Requested field: log10(IC50). Item: N=S(=O)(c1ccc(-c2ccc3n[nH]c(=O)n3c2)cc1)[C@H]1CC[C@H](Nc2ccc(S(F)(F)(F)(F)F)cc2)CC1 (stereo partly shown)
2.50

Sample `O=C1NCc2ccc(-c3ccc(S(=O)(=O)[C@H]4CC[C@H](Nc5ccc(S(F)(F)(F)(F)F)cc5)CC4)cc3)cc21` — what was its log10(IC50)?
1.90

###

- Assayed target: human CCR6 (Homo sapiens)
- Test protocol: Human CCR6-CRE reporter assay
- Type: cell-based
- Design: The second construct contained the open reading frame of human CCR6 in the pUNO1 backbone; host or cells: 293FT cells
- Recorded conditions: relative -Log IC50; 293FT cells transfected with human CCR6 and CRE-luciferase reporter; 6 μM Forskolin, 6 nM CCL20; 5 h
Measured property: IC50 (nM)
Please reply with the bare figure in nM and do not write the unit itself.

Look over these answered cases.
Compound	Assay result
N=S(=O)(c1ccc(-c2ccc3c(c2)CC(=O)N3)cc1)[C@H]1CC[C@H](Nc2ccc(S(F)(F)(F)(F)F)cc2)CC1 (stereo partly drawn)	200
O=S(=O)(c1ccc(-c2ccc(O)nc2)cc1)[C@H]1CC[C@H](Nc2ccc(S(F)(F)(F)(F)F)cc2)CC1	63.1
N=S(=O)(c1ccc(-c2ccc3nccn3c2)cc1)[C@H]1CC[C@H](Nc2ccc(S(F)(F)(F)(F)F)cc2)CC1 (single isomer, unassigned; (-)) [Example 129]	200
COCc1nnc2ccc(-c3ccc(S(=O)(=O)N4CCC(Nc5ccc(S(F)(F)(F)(F)F)cc5)CC4)cc3)cn12	50.1
N#Cc1cc(-c2ccc(S(=O)(=O)[C@H]3CC[C@H](Nc4ccc(S(F)(F)(F)(F)F)cc4)CC3)cc2)cn2ccnc12	50.1

Moving on to the next compound.
Can you look up the measured IC50 of `CN(C)C(=O)c1ccc(-c2ccc(S(=O)(=O)[C@H]3CC[C@H](Nc4ccc(S(F)(F)(F)(F)F)cc4)CC3)cc2)cc1` for me?
79.4

###

Overview of reported pIC50 across a group of molecules:
- Assayed target: human CCR6 (Homo sapiens, UniProt P51684)
- Test protocol: Human CCR6-CRE reporter assay
- Format: cell-based
- Design: The second construct contained the open reading frame of human CCR6 in the pUNO1 backbone; host or cells: 293FT cells
- Recorded conditions: relative -Log IC50; 293FT cells transfected with human CCR6 and CRE-luciferase reporter; 6 μM Forskolin, 6 nM CCL20; 5 h
pIC50 here: minus log base 10 of the concentration, concentration in moles per litre.

Molecule	pIC50
CC(C)c1nnc2ccc(-c3ccc(S(=N)(=O)[C@H]4CC[C@H](Nc5ccc(S(F)(F)(F)(F)F)cc5)CC4)cc3)cn12 (single isomer, unassigned; (-)) [Example 164]	6.90
O=C1NCCc2ccc(-c3ccc(S(=O)(=O)[C@H]4CC[C@H](Nc5ccc(S(F)(F)(F)(F)F)cc5)CC4)cc3)cc21	6.80
O=C1Cc2cc(-c3ccc(S(=O)(=O)[C@H]4CC[C@H](Nc5ccc(S(F)(F)(F)(F)F)cc5)CC4)cc3)ccc2CN1	7.30
Cc1nnc2ccc(-c3ccc(S(=O)(=O)[C@H]4CC[C@H](Nc5ccc(S(F)(F)(F)(F)F)cn5)CC4)cc3)cn12	7.10
Cc1nnc2ccc(-c3ccc(S(=O)(=O)N4CCC(Nc5ccc(S(F)(F)(F)(F)F)cn5)CC4)cc3)cn12	7.60

In the following, a different molecule is considered.
Hello, I am looking for reported pIC50 with human CCR6 (Homo sapiens, UniProt P51684) for CN(C)C(=O)c1ccc(-c2ccc(S(=N)(=O)[C@H]3CC[C@H](Nc4ccc(S(F)(F)(F)(F)F)cc4)CC3)cc2)cn1 (stereo partly drawn) . Could you help?
6.10

###

- Assayed target: UniProt:P51684
- Test protocol: Human CCR6-CRE reporter assay
- Format: cell-based
- Set-up: The second construct contained the open reading frame of human CCR6 in the pUNO1 backbone; host or cells: 293FT cells
- Recorded conditions: relative -Log IC50; 293FT cells transfected with human CCR6 and CRE-luciferase reporter; 6 μM Forskolin, 6 nM CCL20; 5 h
Quick list: pIC50 per entry.
Answer as the number alone; pIC50 is minus log10 of concentration in mol/L.

Please review the following examples before continuing.
Molecule	Assay result
CN(C)C(=O)c1cccc(-c2ccc(S(=O)(=O)[C@H]3CC[C@H](Nc4ccc(S(F)(F)(F)(F)F)cc4)CC3)cc2)c1	7.20
N#Cc1n[nH]c2ccc(-c3ccc(S(=O)(=O)N4CCC(Nc5ccc(S(F)(F)(F)(F)F)cc5)CC4)cc3)cc12	7.30
N#Cc1n[nH]c2ccc(-c3ccc(S(=O)(=O)[C@H]4CC[C@H](Nc5ccc(S(F)(F)(F)(F)F)cc5)CC4)cc3)cc12	7.40
Cc1n[nH]c2ccc(-c3ccc(S(=N)(=O)[C@H]4CC[C@H](Nc5ccc(S(F)(F)(F)(F)F)cc5)CC4)cc3)cc12 (stereo partly shown)	6.90
O=S(=O)(c1ccc(N2CC3CCC(C2)O3)cc1)N1CCC(Nc2ccc(S(F)(F)(F)(F)F)cc2)CC1	6.70
N#Cc1c[nH]c2ccc(-c3ccc(S(=O)(=O)N4CCC(Nc5ccc(S(F)(F)(F)(F)F)cc5)CC4)cc3)cc12	7.30

Could you now look at the following molecule, please?
Entry `O=S(=O)(c1ccc(-c2ccc3nccn3c2)cc1)N1CCC(Nc2ccc(S(F)(F)(F)(F)F)cc2)CC1` has what pIC50?
6.90
